system: SEM cells; experiment: AUC of viability dose-response curve (% viability x log10 dose units); higher = less sensitive; conditions: RPMI 5 mM glucose + 10% dialyzed FBS; 48 h
Please respond with reported AUC of viability dose-response curve for every item in the list.
One number for each entry.

Illustrative cases are given below, each with its answer.
>>> val("C=CC(=O)Nc1ccc2ncnc(Nc3ccc(OCc4cccc(F)c4)c(Cl)c3)c2c1")
383
>>> val("CCCCCN(CCC12CC3CC(CC(C3)C1)C2)C(=O)NCCCc1ccncc1")
466
>>> val("Cn1ccc2cc3c(cc21)CCN3C(=O)Nc1cccnc1")
461
>>> val("CSCC[C@H](NC(=O)[C@H](Cc1c[nH]c2ccccc12)NC(=O)CCNC(=O)OC(C)(C)C)C(=O)N[C@@H](CC(=O)O)C(=O)N[C@@H](Cc1ccccc1)C(N)=O")
459
>>> val("C[N]1N=CC=C1C/2=C(\\C)N(C(=O)C(=C2)/C(=O)NCC3=NC=C(C=C3)[S+](C)([O-])=O)C4=CC=CC(=C4)C(F)(F)F")
468
>>> val("Nc1nc(NCCNc2ncc(-n3ccnc3)c(-c3ccc(Cl)cc3Cl)n2)ccc1[N+](=O)[O-]")
450
>>> val("Cc1cccc2c1CC[C@H](CN1CCC(c3c(Cl)cccc3Cl)CC1)C[C@@H]2O")
441
>>> val("COc1ccc(-c2oc3cc(OC)ccc3c2C(=O)c2ccc(C#N)cc2)cc1")
451

Hey, can you go through the list below and give me AUC of viability dose-response curve for every item?
1. CC(C)n1cnc2c(NCCc3ccc(O)cc3)nc(-c3csc4ccccc34)nc21
2. Oc1ccc(-c2ccc(-c3cc(Nc4cccc(CNC5CC5)c4)[nH]n3)cc2)c(O)c1
3. CN(C)CCOc1ccc(/C(=C(/CCCl)c2ccccc2)c2ccccc2)cc1
4. N#Cc1ccnc(N2C(=O)CC[C@H]2C(=O)N(c2cncc(F)c2)[C@H](C(=O)NC2CC(F)(F)C2)c2ccccc2Cl)c1
5. OC[C@H]1OC(OC2=CC3=C(C(=C2)O)C(=O)\C(=C/O3)C4=CC=C(O)C=C4)[C@H](O)[C@@H](O)[C@@H]1O (some centres undefined)
6. O=[S+]([O-])(NCCNC/C=C/c1ccc(Br)cc1)c1cccc2cnccc12

[388, 374, 369, 379, 451, 354]

* * *

system: SEM cells; assay: cell viability relative to DMSO control; higher = less cytotoxic; settings: HPLM + 10% dialyzed FBS; 48 h; 15.4 µM
Please respond with reported cell viability for every item in the list.

>>> val("C[C@H](NCc1ccc(OCc2cccc(F)c2)cc1)C(N)=O")
"30.7%"

Hey, can you go through the list below and give me cell viability for every item?
1. CCOC(=O)O[C@]1(C(=O)OCCl)CC[C@H]2[C@@H]3CCC4=CC(=O)C=C[C@]4(C)[C@H]3[C@@H](O)C[C@@]21C
2. CCCCc1nc2cc(/C=C/C(=O)NO)ccc2n1CCN(CC)CC
3. COc1cc2ncn(-c3cc(OCc4ccccc4C(F)(F)F)c(C(N)=O)s3)c2cc1OC

88.7%
4.68%
22.4%

Hey, can you go through the list below and give me cell viability for every item?
1. CCOCC(O)COc1ccc(NC(=O)CC[S+](C)C)cc1 (stereo not given)
2. NCCc1ccc(O)c(O)c1
3. COC1=CC=C2[N](CCCN(C)C)C=C(C2=C1)C/3=C(/C(=O)NC3=O)C4=C[NH]C5=C4C=CC=C5
4. Cc1cccc2c1CC[C@H](CN1CCC(c3c(Cl)cccc3Cl)CC1)C[C@@H]2O

["107%", "86%", "67.4%", "96.6%"]

Hey, can you go through the list below and give me cell viability for every item?
1. N#C/C(=C1/Nc2ccccc2S1)c1ccnc(OCc2ccc(CN3CCOCC3)cc2)n1
2. COc1cc(OC)c(C(=O)CCCN2CCCC2)c(OC)c1

108%
107%

* * *

test system: SEM cells; assay: cell viability relative to DMSO control; higher = less cytotoxic; settings: RPMI 5 mM glucose + 10% dialyzed FBS; 48 h; 0.00702 µM
MEASURED METRIC: cell viability (%)
Numbers only, in %.

Illustrative cases are given below, each with its answer.
>>> val("O=C1N\\C=N/C2=C1C=N[NH]2")
81.4
>>> val("CO[C@@H]1[C@@H](O)[C@H](O)[C@@H](n2c3c(Cl)cccc3c3c4c(c5c6cccc(Cl)c6[nH]c5c32)C(=O)NC4=O)O[C@H]1CO")
95.1
>>> val("Oc1ccc2ccccc2c1SSc1c(O)ccc2ccccc12")
84.3

Hey, can you go through the list below and give me cell viability for every item?
1. CN1CCC(CC1)=C2C3=C(C=CC=C3)\C=C/C4=C2C=CC=C4
2. COC(=O)Nc1nc2ccc([S+]([O-])c3ccccc3)cc2[nH]1 (stereo not drawn)

[117, 113]

* * *

test system: NOMO1; assay: cell viability relative to DMSO control; higher = less cytotoxic; details: HPLM + 10% dialyzed FBS; 48 h; 0.000781 µM
MEASURED METRIC: cell viability (%)
One number for each entry, in %.

>>> val("CC(C)c1c(C(=O)Nc2ccccc2)c(-c2ccccc2)c(-c2ccc(F)cc2)n1CC[C@@H](O)C[C@@H](O)CC(=O)[O-]")
109
>>> val("N=C(N)NC(=N)N1CCOCC1")
102

Hey, can you go through the list below and give me cell viability for every item?
1. COc1cc2c(Nc3ccc(Cl)c(Cl)c3F)ncnc2cc1OC[C@@H]1C[C@@H]2CN(C)C[C@@H]2C1
2. CC[C@H]1CN2CCc3cc(OC)c(OC)cc3[C@@H]2C[C@@H]1C[C@H]1NCCc2cc(OC)c(OC)cc21
3. O=[S+]([O-])(NCCNC/C=C/c1ccc(Br)cc1)c1cccc2cnccc12
4. CN(C(Cc1ccc(O[S+](=O)([O-])c2cccc3cnccc23)cc1)C(=O)N1CCN(c2ccccc2)CC1)[S+](=O)([O-])c1cccc2cnccc12 (stereo not given)
5. CO[C@@H]1[C@@H](O)[C@H](O)[C@@H](n2c3c(Cl)cccc3c3c4c(c5c6cccc(Cl)c6[nH]c5c32)C(=O)NC4=O)O[C@H]1CO
6. CCC(C1CCC(C)C(O1)C(C)C(O)C(C)C(=O)C(CC)C2OC\3(O[C@]4(CC[C@@](C)(O4)C5CC[C@@](O)(CC)C(C)O5)C(O)\C=C3)C(C)CC2C)C([O-])=O (stereo not given in full)
7. CCOCC(O)COc1ccc(NC(=O)CC[S+](C)C)cc1 (stereo not given)
8. C1CN\2C[C@@H](\N=C2S1)C3=CC=CC=C3

1: 97.3; 2: 95.5; 3: 110; 4: 127; 5: 103; 6: 111; 7: 91.1; 8: 101

Hey, can you go through the list below and give me cell viability for every item?
1. CN(C)CCc1c[nH]c2ccc(C[S+](=O)([O-])N3CCCC3)cc12
2. Cc1cnc(Nc2ccc(CN3CCOCC3)cc2)nc1Nc1cccc([S+](=O)([O-])NC(C)(C)C)c1
3. CCOC(=O)O[C@]1(C(=O)OCCl)CC[C@H]2[C@@H]3CCC4=CC(=O)C=C[C@]4(C)[C@H]3[C@@H](O)C[C@@]21C
4. Cc1c(C(=O)c2cccc3ccccc23)c2cccc3c2n1[C@H](CN1CCOCC1)CO3
5. NC[C@H]1O[C@H](O[C@H]2[C@H](O)[C@@H](O[C@H]3O[C@H](CO)[C@@H](O)[C@H](N)[C@H]3O)[C@H](N)C[C@@H]2N)[C@H](N)C[C@@H]1O

95.2
87.4
101
104
103

* * *

test system: P12-Ichikawa; experiment: cell viability relative to DMSO control; higher = less cytotoxic; settings: HPLM + 10% dialyzed FBS; 48 h; 0.19 µM
Please respond with reported cell viability for every item in the list.
Give bare numbers, in %.

>>> val("CCOCC(O)COc1ccc(NC(=O)CC[S+](C)C)cc1 (stereo not drawn)")
88.1
>>> val("N#Cc1ccnc(N2C(=O)CC[C@H]2C(=O)N(c2cncc(F)c2)[C@H](C(=O)NC2CC(F)(F)C2)c2ccccc2Cl)c1")
97
>>> val("CCc1cc(-c2n[nH]c(C)c2-c2ccc3c(c2)OCCO3)c(O)cc1O")
135
>>> val("C=CC(=O)Nc1ccc2ncnc(Nc3ccc(OCc4cccc(F)c4)c(Cl)c3)c2c1")
109
>>> val("O=C(O)Cc1cccc(OCCCN(Cc2cccc(C(F)(F)F)c2Cl)CC(c2ccccc2)c2ccccc2)c1")
115
>>> val("N#CC[C@H](C1CCCC1)n1cc(-c2ncnc3[nH]ccc23)cn1")
90.3
>>> val("N#C/C(=C1/Nc2ccccc2S1)c1ccnc(OCc2ccc(CN3CCOCC3)cc2)n1")
119

Shifting focus to the compound that follows.
# cell viability lookup, item "Cc1ccc(-c2cc(C(F)(F)F)nn2-c2ccc([S+](N)(=O)[O-])cc2)cc1"
110
